Source listed as PubChem BioAssay AID1159580.

Reported normalized growth values for the following molecules.
assay: chemical genetic growth profiling, strain panel (AID 1159580);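 note: tested at 20 µM; growth read once vehicle control cultures reached saturation at 30 °C; 1 = growth at the plate median or of vehicle wells; lower values mean less growth of the strain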; conditions: S. cerevisiae deletion strains, growth OD, locus YNL183C, strain NPR1, stronger effect = lower value
In all, about 5,500 compounds went through this assay and about 2,000 (36%) were called active. Not shown: some 18% with an inconclusive outcome. This is one part of the list.
Give your answer as a number; write no unit.

Example molecules with recorded normalized growth:
MOLECULE: O=S(=O)(NCc1ccc(C(F)(F)F)cc1)c1cc(Br)c(Br)s1
RECORDED MEASUREMENT: 0.659
//
MOLECULE: CC[C@@H]1OC(=O)C[C@@H](O)[C@H](C)[C@@H](O[C@@H]2O[C@H](C)[C@@H](O)[C@H](N(C)C)[C@H]2O)[C@@H](CCN2C[C@H](C)C[C@H](C)C2)C[C@@H](C)C(=O)/C=C/C(C)=C\[C@@H]1CO[C@@H]1O[C@H](C)[C@@H](O)[C@@H](OC)[C@H]1OC
RECORDED MEASUREMENT: 0.955
//
MOLECULE: O=S(=O)(Nc1cc(Cl)c(Cl)cc1Cl)c1cc(C(F)(F)F)cc(C(F)(F)F)c1
RECORDED MEASUREMENT: 0.916

Given item O=S(=O)(NCc1ccc(C(F)(F)F)cc1)c1cccc(C(F)(F)F)c1 , the value recorded as its normalized growth is 1.04

Given item COc1ccc2oc(-c3ccccc3)c(OC)c(=O)c2c1 , the value recorded as its normalized growth is 0.88

Given item O=C(NNc1ccccc1)c1cc(-c2ccc(Cl)cc2)oc1C(F)(F)F , the value recorded as its normalized growth is 0.697

Given item COc1ccc2c(=O)c(OC)c(-c3ccccc3)oc2c1 , the value recorded as its normalized growth is 0.916

Given item Nc1nc(F)nc2c1ncn2[C@@H]1O[C@H](COP(=O)(O)O)[C@@H](O)[C@@H]1O , the value recorded as its normalized growth is 0.96

Given item CN(C)CCC(c1ccccc1)c1ccccn1 (centres undefined) , the value recorded as its normalized growth is 0.939
